test: Stability of compounds in mouse blood plasma; assay type: in vitro ADME
Numbered stars: 1 amine (or outer) side, 2 acyl side, 3 side chain; on linkers, the order of the positions; unused ones are H or OH. Square brackets hold non-standard residues; d marks the D form. Peptide text beside a SMILES is read from it. * marks the point of attachment. Gly(1-amidinopiperidin-4-yl) = N=C(N)N1CCC([C@H](N)C(=O)O)CC1; Tetrahydroisoquinolin(2-yl) = c1ccc2c(c1)CCN(*)C2; X1 = CC(C)c1oc([C@H](CO)N[*:1])nc1C(=O)[*:2]; Pro(3R-Ph) = O=C(O)[C@H]1NCC[C@@H]1c1ccccc1; N(Me)CH2CH2Ph = CN(CCc1ccccc1)*; Tic = O=C(O)[C@@H]1Cc2ccccc2CN1; Cha = N[C@@H](CC1CCCCC1)C(=O)O; Nle = CCCC[C@H](N)C(=O)O; X2 = OCCOCCN(Cc1ccccc1)*; X6 = OCCN(CCc1ccccc1)*
Stability (Arbitrary units) Mouse 6 h for assorted compounds

compound	result-units	Stability (Arbitrary units) Mouse 6 h
CCCC[C@H](NC(=O)[C@@H]1Cc2ccccc2CN1C(=O)[C@@H](NC(=O)[C@H](CC1CCCCC1)NC(C)=O)C1CCN(C(=N)N)CC1)C(=O)N1CC[C@H](c2ccccc2)[C@H]1C(=O)N[C@@H](CO)c1nc(C(=O)N(C)C)c(C(C)C)o1 [Compound P53] (Ac-[Cha][Gly(1-amidinopiperidin-4-yl)][Tic][Nle][Pro(3R-Ph)][X1]-NMe2)	Arbitrary units	117
CSCC[C@H](NC(=O)[C@@H]1Cc2ccccc2CN1C(=O)[C@H](CCCNC(=N)N)NC(=O)[C@H](CC1CCCCC1)NC(C)=O)C(=O)N1CC[C@H](c2ccccc2)[C@H]1C(N)=O [Compound P31, Ac-Cha-Arg-Tic-Met-βPhPro-NH2] (Ac-[Cha]R[Tic]M[Pro(3R-Ph)]-NH2)	Arbitrary units	86
CSCC[C@H](NC(=O)[C@@H]1Cc2ccccc2CN1C(=O)[C@H](CCCNC(=N)N)NC(=O)[C@H](CC1CCCCC1)NC(C)=O)C(=O)N(CCO)CCc1ccccc1 [Compound P85, Ac-Cha-Arg-Tic-Met-N(CH2CH2OH)CH2CH2Ph] (Ac-[Cha]R[Tic]M-X6)	Arbitrary units	98
CSCC[C@H](NC(=O)[C@@H]1Cc2ccccc2CN1C(=O)[C@@H](NC(=O)[C@H](CC1CCCCC1)NC(C)=O)C1CCN(C(=N)N)CC1)C(=O)N(CCOCCO)Cc1ccccc1 [Compound P102, Ac-Cha-Gpg-Tic-Met-N(Bn)CH2CH2OCH2CH2OH] (Ac-[Cha][Gly(1-amidinopiperidin-4-yl)][Tic]M-X2)	Arbitrary units	105
CSCC[C@H](NC(=O)[C@@H]1Cc2ccccc2CN1C(=O)[C@H](CCCNC(=N)N)NC(=O)[C@H](CC1CCCCC1)NC(C)=O)C(=O)N(C)CCc1ccccc1 [Compound P84, Ac-Cha-Arg-Tic-Met-N(Me)CH2CH2Ph] (Ac-[Cha]R[Tic]M-{N(Me)CH2CH2Ph})	Arbitrary units	111
CSCC[C@H](NC(=O)[C@@H]1Cc2ccccc2CN1C(=O)[C@@H](NC(=O)[C@H](CC1CCCCC1)NC(C)=O)C1CCN(C(=N)N)CC1)C(=O)N1CC[C@H](c2ccccc2)[C@H]1C(=O)N[C@@H](CO)c1nc(C(=O)N(C)C)c(C(C)C)o1 [Compound P60] (Ac-[Cha][Gly(1-amidinopiperidin-4-yl)][Tic]M[Pro(3R-Ph)][X1]-NMe2)	Arbitrary units	111
CCCC[C@H](NC(=O)[C@@H]1Cc2ccccc2CN1C(=O)[C@@H](NC(=O)[C@H](CC1CCCCC1)NC(C)=O)C1CCN(C(=N)N)CC1)C(=O)N1CCc2ccccc2C1 [Compound P77] (Ac-[Cha][Gly(1-amidinopiperidin-4-yl)][Tic][Nle]-{Tetrahydroisoquinolin(2-yl)})	Arbitrary units	141

###

assay: Stability of compounds in mouse blood plasma; type: in vitro ADME
Square brackets hold non-standard residues; d marks the D form. Peptide text beside a SMILES is read from it. * marks the point of attachment. ξ: configuration not given here. Gly(1-amidinopiperidin-4-yl) = N=C(N)N1CCC([C@H](N)C(=O)O)CC1; Tic = O=C(O)[C@@H]1Cc2ccccc2CN1; Cha = N[C@@H](CC1CCCCC1)C(=O)O; NMe(benzyl) = CN(Cc1ccccc1)*; ξDisc = O=C(O)C1NCc2ccccc21; Nle = CCCC[C@H](N)C(=O)O; X3 = OCCOCCN*
measurement-type: Stability (Arbitrary units) Mouse 6 h

molecule	reported-value
CCCC[C@H](NC(=O)C1c2ccccc2CN1C(=O)[C@H](CCCNC(=N)N)NC(=O)[C@H](CC1CCCCC1)NC(C)=O)C(=O)N(C)Cc1ccccc1 (stereo partly drawn) [Compound P72-1, Ac-Cha-Arg-Disc-Nle-N(Me)Bn] (Ac-[Cha]R[ξDisc][Nle]-{NMe(benzyl)})	97 Arbitrary units
CCCC[C@H](NC(=O)[C@@H]1Cc2ccccc2CN1C(=O)[C@@H](NC(=O)[C@H](CC1CCCCC1)NC(C)=O)C1CCN(C(=N)N)CC1)C(=O)NCCOCCO [Compound P70, Ac-Cha-Gpg-Tic-Nle-N(H)CH2CH2OCH2CH2OH] (Ac-[Cha][Gly(1-amidinopiperidin-4-yl)][Tic][Nle]-X3)	105 Arbitrary units

###

molecular target: DR1 (DRA1*0101 DRB1*0101) (Homo sapiens, UniProt P01903+P01911, A100R/D57E/F55L/F60I/F76Y/I96L/L162R/M171V/P40L/Q125E/R42F/V115G/Y59C); experiment: Competitive binding to MHC-II protein DR1; settings: Protein binding IC50 (nM) 0101, 0101
Numbered stars: 1 amine (or outer) side, 2 acyl side, 3 side chain; on linkers, the order of the positions; unused ones are H or OH. Square brackets hold non-standard residues; d marks the D form. Peptide text beside a SMILES is read from it. * marks the point of attachment. Gly(1-amidinopiperidin-4-yl) = N=C(N)N1CCC([C@H](N)C(=O)O)CC1; X1 = CC(C)c1oc([C@H](CO)N[*:1])nc1C(=O)[*:2]; Pro(3R-Ph) = O=C(O)[C@H]1NCC[C@@H]1c1ccccc1; Tic = O=C(O)[C@@H]1Cc2ccccc2CN1; Cha = N[C@@H](CC1CCCCC1)C(=O)O; NHPhenethyl = c1ccc(CCN*)cc1; Nle = CCCC[C@H](N)C(=O)O; X3 = OCCOCCN*

compound	IC50
CCCC[C@H](NC(=O)[C@@H]1Cc2ccccc2CN1C(=O)[C@H](CCCNC(=N)N)NC(=O)[C@H](CC1CCCCC1)NC(C)=O)C(=O)NCCc1ccccc1 [Compound P82, Ac-Cha-Arg-Tic-Nle-N(H)CH2CH2Ph] (Ac-[Cha]R[Tic][Nle]-NHPhenethyl)	3100 nM
CSCC[C@H](NC(=O)[C@@H]1Cc2ccccc2CN1C(=O)[C@H](CCCNC(=N)N)NC(=O)[C@H](CC1CCCCC1)NC(C)=O)C(=O)N1CC[C@H](c2ccccc2)[C@H]1C(=O)N[C@@H](CO)c1nc(C(=O)N(C)C)c(C(C)C)o1 [Compound P33] (Ac-[Cha]R[Tic]M[Pro(3R-Ph)][X1]-NMe2)	190 nM
CSCC[C@H](NC(=O)[C@@H]1Cc2ccccc2CN1C(=O)[C@H](CCCNC(=N)N)NC(=O)[C@H](CC1CCCCC1)NC(C)=O)C(=O)N1CC[C@H](c2ccccc2)[C@H]1C(N)=O [Compound P31, Ac-Cha-Arg-Tic-Met-βPhPro-NH2] (Ac-[Cha]R[Tic]M[Pro(3R-Ph)]-NH2)	290 nM
CCCC[C@H](NC(=O)[C@@H]1Cc2ccccc2CN1C(=O)[C@@H](NC(=O)[C@H](CC1CCCCC1)NC(C)=O)C1CCN(C(=N)N)CC1)C(=O)NCCOCCO [Compound P70, Ac-Cha-Gpg-Tic-Nle-N(H)CH2CH2OCH2CH2OH] (Ac-[Cha][Gly(1-amidinopiperidin-4-yl)][Tic][Nle]-X3)	90 nM

###

target: Cathepsin D (EC 3.4.23.5 from bovine spleen) (Bos taurus)
Numbered stars: 1 amine (or outer) side, 2 acyl side, 3 side chain; on linkers, the order of the positions; unused ones are H or OH. Square brackets hold non-standard residues; d marks the D form. Peptide text beside a SMILES is read from it. * marks the point of attachment. Gly(1-amidinopiperidin-4-yl) = N=C(N)N1CCC([C@H](N)C(=O)O)CC1; X1 = CC(C)c1oc([C@H](CO)N[*:1])nc1C(=O)[*:2]; Pro(3R-Ph) = O=C(O)[C@H]1NCC[C@@H]1c1ccccc1; Tic = O=C(O)[C@@H]1Cc2ccccc2CN1; Cha = N[C@@H](CC1CCCCC1)C(=O)O; X4 = OCCOCCN(CCc1ccccc1)*; Nle = CCCC[C@H](N)C(=O)O; X2 = OCCOCCN(Cc1ccccc1)*

molecule	target-or-system	result-units	Stability (Arbitrary units) Cath D 4 h
CCCC[C@H](NC(=O)C1c2ccccc2CN1C(=O)[C@@H](NC(=O)[C@H](CC1CCCCC1)NC(C)=O)C1CCN(C(=N)N)CC1)C(=O)N(C)Cc1ccccc1 (single isomer, unassigned) [Compound P78-1]	Cathepsin D (EC 3.4.23.5 from bovine spleen) (Bos taurus)	Arbitrary units	104
CCCC[C@H](NC(=O)[C@@H]1Cc2ccccc2CN1C(=O)[C@@H](NC(=O)[C@H](CC1CCCCC1)NC(C)=O)C1CCN(C(=N)N)CC1)C(=O)N(CCOCCO)Cc1ccccc1 [Compound P101, Ac-Cha-Gpg-Tic-Nle-N(Bn)CH2CH2OCH2CH2OH] (Ac-[Cha][Gly(1-amidinopiperidin-4-yl)][Tic][Nle]-X2)	Cathepsin D (EC 3.4.23.5 from bovine spleen) (Bos taurus)	Arbitrary units	106
CSCC[C@H](NC(=O)[C@@H]1Cc2ccccc2CN1C(=O)[C@H](CCCNC(=N)N)NC(=O)[C@H](CC1CCCCC1)NC(C)=O)C(=O)N(CCOCCO)CCc1ccccc1 [Compound P96] (Ac-[Cha]R[Tic]M-X4)	Cathepsin D (EC 3.4.23.5 from bovine spleen) (Bos taurus)	Arbitrary units	106
CCCC[C@H](NC(=O)[C@@H]1Cc2ccccc2CN1C(=O)[C@H](CCCNC(=N)N)NC(=O)[C@H](CC1CCCCC1)NC(C)=O)C(=O)N1CC[C@H](c2ccccc2)[C@H]1C(=O)N[C@@H](CO)c1nc(C(=O)N(C)C)c(C(C)C)o1 [Compound P51] (Ac-[Cha]R[Tic][Nle][Pro(3R-Ph)][X1]-NMe2)	Cathepsin D (EC 3.4.23.5 from bovine spleen) (Bos taurus)	Arbitrary units	103
